Entry source: patent US20130096310A1

# Test Target: CRTH2 (Homo sapiens, UniProt Q9Y5Y4)
# Sequence (Q9Y5Y4 whole entry): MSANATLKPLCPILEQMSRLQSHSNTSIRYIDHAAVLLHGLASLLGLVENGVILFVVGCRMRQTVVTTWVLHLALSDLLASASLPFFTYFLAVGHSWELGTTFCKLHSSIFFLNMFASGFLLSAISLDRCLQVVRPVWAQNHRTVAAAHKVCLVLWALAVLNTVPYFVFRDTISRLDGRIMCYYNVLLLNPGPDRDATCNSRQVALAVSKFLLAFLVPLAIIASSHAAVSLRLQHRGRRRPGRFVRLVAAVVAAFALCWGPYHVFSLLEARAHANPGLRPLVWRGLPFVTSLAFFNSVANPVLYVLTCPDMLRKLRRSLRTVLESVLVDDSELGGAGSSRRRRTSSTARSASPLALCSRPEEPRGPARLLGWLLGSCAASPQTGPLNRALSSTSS
# Measurement Protocol: CRTH2 antagonist test: inhibition of PGD2-induced intracellular calcium ion concentration increase in KB8 cells
# Study Conditions: KB8 cells (human cells expressing CRTH2); PGD2 final concentration 100 nM; Fluo-4-AM, FDSS6000
Decision: IC50 beneath 10 nM gives t; IC50 meeting or exceeding 10 nM gives f.

Exam item: Strictly below 10 nM: is that where IC50 of O=C(O)Cc1cnc(C(F)(F)c2ccc(C(=O)NCCc3ccc(Cl)cc3)cc2)c2ccccc12 sits?
Marked response: f

Exam item: Then this compound: O=C(O)Cc1cnc(Cc2ccc(C(=O)NCCc3ccc(Cl)cc3)cc2F)c2ccccc12
Marked response: f

Exam item: Then this compound: CC(c1ccc(C(=O)NCCc2ccc(Cl)cc2)cc1)c1ncc(CC(=O)O)c2ccccc12 (stereo not shown)
Marked response: t

Exam item: Then this compound: O=C(O)Cc1cnc(Cc2ccc(C(=O)NCCc3ccc(Cl)cc3)c(C(F)(F)F)c2)c2ccccc12
Marked response: f

Exam item: Then this compound: Cc1cc(Cc2ncc(CC(=O)O)c3ccccc23)ccc1C(=O)NCCc1ccc(Cl)cc1
Marked response: f

Exam item: Then this compound: COc1cc(Cc2ncc(CC(=O)O)c3ccccc23)ccc1C(=O)NCCc1ccc(Cl)cc1
Marked response: f

Exam item: Then this compound: O=C(O)Cc1cnc(Cc2ccc(C(=O)NCCc3ccc(Cl)cc3)c(F)c2)c2ccccc12
Marked response: t
